B1: glmS ribozyme (parent)
chain: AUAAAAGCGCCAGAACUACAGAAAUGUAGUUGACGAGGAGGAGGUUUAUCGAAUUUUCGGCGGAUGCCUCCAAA

variants of: B1; test: self-cleavage kobs at 160 uM GlcN6P; higher = faster cleavage; RNA array; settings: with glucosamine-6-phosphate
Fewer inactive variants are shown than the library holds.
Catalogue of variants with associated self-cleavage kobs at 160 uM GlcN6P
Report only the number, with the unit s⁻¹ understood.

Param item = AUAAAAGCGCCAGACCUACAGAAAUGUAGGUGACGAGGAGGAGGUUUAUCGAAUUUUCGGCGGAUGCCUCCAAA [A15C U30G] ; retrieve measured self-cleavage kobs at 160 uM GlcN6P.
0.00591

Further, for AUAAAAGCGCUAGAAUUACAGAAAUGUAGUUGACGAGGAGGAGGUUUAUCGAAUUUUCGGCGGAUGCCUCCAAA [C11U C16U] ?
8.34e-05

Further, for AUAAAAGCGCCAGAACUACAGAAAUGUAGCUGACGAGGAGGAGGUUUAUCGAAGUUUCGGCGGAUGCCUCCAAA [U30C U54G] ?
9.02e-05

Further, for AUAAAAGCGCCAGAACUACAGAAAUGUAGUUGACGAGGAGGAGGAUUAUCGAAUUUUCGGCGGAUGCCUUCAAA [U45A C70U] ?
0.00187

Further, for AUAAAAGCGCCAGAACUACAGAAAUGUAGUUGACGAGGAGGAGGUUUAUCGAAUUUUCGGCGGUUGCCGCCAAA [A64U U69G] ?
4.51e-05

Further, for AUAAAAGCGCCGGAACUACAGAAAUGUAGUUGACGAGGAGGAGGUUUAUCGAAUUUUCGGCGGAUGACUCCAAA [A12G C67A] ?
4.4e-05

Others:
Param item = AUAAAAGCGCCAGAACUACAGAAAUGUAGGUGACGAGGAGGAGGUUUAUCGAAUUUUCGGCGGAUGCCUCCAAA [U30G] ; retrieve measured self-cleavage kobs at 160 uM GlcN6P.
0.000809

Further, for AUAAAAGCGGCAGAACUACAGAAAUGUAGUUGACGAGGAGGAGGUUUAUGGAAUUUUCGGCGGAUGUCUCCAAA [C10G C50G C67U] ?
9.87e-05

Further, for AUAAAAGCGCCAGAACUCCAGAAAUGUAGUUGACGAGGAGGAGGUUUAUCGAAUUUUCGGCGGAUGCCUCCAAA [A18C] ?
0.00647

Further, for AUAAAAGCGCCAGAACUACAGAAAUGUAGUUGACGAGGAGGAGGUUUAUCGAAUUUUCGGCGGAGGGCUCCAAA [U65G C67G] ?
0.00012

Further, for AUAAAAGCGCCAGAGCUACAGAAAUGUAGUUGACGAGGAGGAGGGUUAUCGAAUUUUCGGCGGAUGCCUCCAAA [A15G U45G] ?
0.000643
